- Test system: VDR homodimer (NR concentration 270 nM)
- assay.info: PBM binding z-score (relative to random genomic background probes); higher = stronger binding; sequences stand for … in GC…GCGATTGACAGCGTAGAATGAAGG
# PBM binding z-score >= 1 gives condition met, anything below gives condition not met

ATCGAAAGGTCGAGGTGGGTATAGAGAAAGGGAA; condition met
GCAGACAGGTGAAACGCGGGTAACTCAGGGTGGC; condition not met
TCTCGGAGGACACGAAGGTCAGAGTTTTCCAGAG; condition met
AGAATGACGTTACCAAAGATCAGGGAAACGCTTG; condition not met
TATACAGGGACAAAGGCCAGAGTACGAATGTCGA; condition not met
CCTAGTTGCTCAAGGTCACACACGCTATAGGTAC; condition met
CATCCAAGGTCAAGGTCAGTGAAAGAGACTCGAA; condition met
CAGCCTAGGTCGGGGCCAGTATAGGAGGAACGTT; condition not met

Exercise: Determine whether measured PBM binding z-score meets or exceeds 1 for CCTCCTGGGCCAAAGGTCATTGATTCCAATGCTC
Key: condition met

Exercise: Determine whether measured PBM binding z-score meets or exceeds 1 for GGAACGAGGGCATTCGAGTTAATAGCATGGCGAT
Key: condition met

Exercise: Determine whether measured PBM binding z-score meets or exceeds 1 for GCTCGGAGGACACGGTCAGAGCTTTGTCCGTAGA
Key: condition not met

====

- Test system: RARa:RXR (NR concentration 270 nM, RXRa partner concentration 90 nM)
- assay.info: PBM binding z-score (relative to random genomic background probes); higher = stronger binding; sequences stand for … in GC…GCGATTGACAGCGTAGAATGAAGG
measured.parameter: PBM binding z-score
Lab note: record the figure alone, no unit after it.

TCTTATAGATCAGCAGGTTAAGAAAGCTGGCCAA; 0.109
CGTCCAAGGTCAAAGGAGGTCAGTGAAGACAGAT; 5.79
ATCGAAAGGTCGAAGATGAGTATACCCACCCGAA; 2.66
CAAATTAGGTCAAGAGGTCAAAGTCCGCTTCCCG; 8.33
TAGCCTAGGCCAGATCGGGCCAGTATACGCTATA; -0.593
GGAACGAGTGCATTCGAGTTGATAGCATGGCGAT; -0.0398
ACAGACCGGTGAGTGAAGGTAACTCAGCTGGACG; -0.54
GGAACGAGGGCAAAGTTGATACCATCTGTCGACG; 2.09

Tested system RARa:RXR (NR concentration 270 nM, RXRa partner concentration 90 nM); PBM binding z-score recorded for TCTCGGAGGACACGAAAGATCAGAGCTCGACATC was -0.0104

Tested system RARa:RXR (NR concentration 270 nM, RXRa partner concentration 90 nM); PBM binding z-score recorded for CGTCCAAGGTCATCGGAGGTCAGTGAAGACAGAT was 6.63

Tested system RARa:RXR (NR concentration 270 nM, RXRa partner concentration 90 nM); PBM binding z-score recorded for GCTAGTTGGTCCGTAAAAGGTCACACACCGGTCG was 5.63

====

- Tested on: THRa:RXRa (NR concentration 90 nM, RXRa partner concentration 90 nM)
- assay.info: PBM binding z-score (relative to random genomic background probes); higher = stronger binding; sequences stand for … in GC…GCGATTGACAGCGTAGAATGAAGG
Okay, here is how we bin by PBM binding z-score: lower segment (below 1), middle segment (1 to below 3), upper segment (3 or more)

// below: answered sequences
TCGTATAGGTAAAGGTGAAAGTCGAACGATATGA; middle segment
CATCAAAGTTCAACTAAGGTAACGTAAAGCACGC; upper segment
TGTATTAGTTGATTAGGGCAACCGAAACAGCGGA; lower segment
TCGAGTAGGTTACCCATGGGGCATTCAGCTTTCT; lower segment
CAAACTAGGTCACGAAAGGTCCAAGTCGAATGAC; upper segment

Exercise: Please let me know in which category the item CGTCAAAGTTCAACTATGGTAACGTAAAGCACGC belongs.
Key: upper segment
